// provenance: paper PMC6356649

System: α-PsGal (recombinant wild-type α-D-galactosidase, GH36) (Pseudoalteromonas sp. KMM 701, UniProt Q19AX0)
Construct: recombinant from pET-40b(+) in E. coli Rosetta (DE3); two identical subunits; catalytic Asp451 and Asp516
Protocol: inhibition of pNP-α-Gal hydrolysis
Format: biochemical
Setup Conditions: competitive; reaction product; active site; pH 7.0, 20 °C; read-out: decreased the activity on 50%
pIC50: −log10 of the molar value.
Experimental Endpoint: pIC50

• OC[C@H]1OC(O)[C@H](O)[C@@H](O)[C@H]1O (stereo partly shown) = 3.15
